protocol-details: total protein half-life in vivo (active degradation + dilution); higher = more stable protein
experimental-setup: wild type E. coli NCM3722; growth: C-lim chemostat; doubling time 12 h
What total protein half-life in vivo was measured for each of the following?
Give bare numbers, in h.

Consider the following illustrative entries.
q: Look up total protein half-life in vivo for this sequence: `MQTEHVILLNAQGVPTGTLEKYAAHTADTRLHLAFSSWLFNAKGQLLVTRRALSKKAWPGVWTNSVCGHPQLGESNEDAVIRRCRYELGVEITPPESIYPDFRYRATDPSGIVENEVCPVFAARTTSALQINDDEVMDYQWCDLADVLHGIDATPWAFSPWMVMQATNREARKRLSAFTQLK`
a: 8.96

q: Look up total protein half-life in vivo for this sequence: `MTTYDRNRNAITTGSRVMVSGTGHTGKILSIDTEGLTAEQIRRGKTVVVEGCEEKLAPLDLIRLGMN`
a: 5.42

More entries:
q: Look up total protein half-life in vivo for this sequence: `MLRFSANLSMLFGEYDFLARFEKAAQCGFRGVEFMFPYDYDIEELKHVLASNKLEHTLHNLPAGDWAAGERGIACIPGREEEFRDGVAAAIRYARALGNKKINCLVGKTPAGFSSEQIHATLVENLRYAANMLMKEDILLLIEPINHFDIPGFHLTGTRQALKLIDDVGCCNLKIQYDIYHMQRMEGELTNTMTQWADKIGHLQIADNPHRGEPGTGEINYDYLFKVIENSDYNGWVGCEYKPQTTTEAGLRWMDPYR`
a: 10.1

###

protocol-details: total protein half-life in vivo (active degradation + dilution); higher = more stable protein
experimental-setup: E. coli NCM3722 delta-lon; growth: N-lim chemostat; doubling time 6 h
assay-metric: total protein half-life in vivo (h)
Answers are plain numbers, in h.

Consider the following illustrative entries.
q: Look up total protein half-life in vivo for this sequence: MKKKRPVLQDVADRVGVTKMTVSRFLRNPEQVSVALRGKIAAALDELGYIPNRAPDILSNATSRAIGVLLPSLTNQVFAEVLRGIESVTDAHGYQTMLAHYGYKPEMEQERLESMLSWNIDGLILTERTHTPRTLKMIEVAGIPVVELMDSKSPCLDIAVGFDNFEAARQMTTAIIARGHRHIAYLGARLDERTIIKQKGYEQAMLDAGLVPYSVMVEQSSSYSSGIELIRQARREYPQLDGVFCTNDDLAVGAAFECQRLGLKVPDDMAIAGFHGHDIGQVMEPRLASVLTPRERMGSIGAERLLARIRGESVTPKMLDLGFTLSPGGSI [P0ACP5]
a: 5.99

q: Look up total protein half-life in vivo for this sequence: `MRKQWLGICIAAGMLAACTSDDGQQQTVSVPQPAVCNGPIVEISGADPRFEPLNATANQDYQRDGKSYKIVQDPSRFSQAGLAAIYDAEPGSNLTASGEAFDPTQLTAAHPTLPIPSYARITNLANGRMIVVRINDRGPYGNDRVISLSRAAADRLNTSNNTKVRIDPIIVAQDGSLSGPGMACTTVAKQTYALPAPPDLSGGAGTSSVSGPQGDILPVSNSTLKSEDPTGAPVTSSGFLGAPTTLAPGVLEGSEPTPAPQPVVTAPSTTPATSPAMVTPQAVSQSASGNFMVQVGAVSDQARAQQYQQQLGQKFGVPGRVTQNGAVWRIQLGPFASKAEASTLQQRLQTEAQLQSFITTAQ`
a: 6.29

q: Look up total protein half-life in vivo for this sequence: `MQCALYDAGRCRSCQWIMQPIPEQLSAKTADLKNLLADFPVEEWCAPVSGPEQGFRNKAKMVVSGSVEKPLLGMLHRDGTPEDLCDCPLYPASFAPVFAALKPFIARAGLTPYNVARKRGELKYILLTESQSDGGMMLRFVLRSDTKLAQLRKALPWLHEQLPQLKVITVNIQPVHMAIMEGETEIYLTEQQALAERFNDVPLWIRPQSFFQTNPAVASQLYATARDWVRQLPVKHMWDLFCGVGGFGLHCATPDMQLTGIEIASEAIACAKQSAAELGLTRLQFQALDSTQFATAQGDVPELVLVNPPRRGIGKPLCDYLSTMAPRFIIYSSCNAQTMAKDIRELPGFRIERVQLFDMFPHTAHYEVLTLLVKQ`
a: 5.02

q: Look up total protein half-life in vivo for this sequence: `MFKKGLLALALVFSLPVFAAEHWIDVRVPEQYQQEHVQGAINIPLKEVKERIATAVPDKNDTVKVYCNAGRQSGQAKEILSEMGYTHVENAGGLKDIAMPKVKG`
a: 2.7

The record that follows has no total protein half-life in vivo shown yet.
q: Look up total protein half-life in vivo for this sequence: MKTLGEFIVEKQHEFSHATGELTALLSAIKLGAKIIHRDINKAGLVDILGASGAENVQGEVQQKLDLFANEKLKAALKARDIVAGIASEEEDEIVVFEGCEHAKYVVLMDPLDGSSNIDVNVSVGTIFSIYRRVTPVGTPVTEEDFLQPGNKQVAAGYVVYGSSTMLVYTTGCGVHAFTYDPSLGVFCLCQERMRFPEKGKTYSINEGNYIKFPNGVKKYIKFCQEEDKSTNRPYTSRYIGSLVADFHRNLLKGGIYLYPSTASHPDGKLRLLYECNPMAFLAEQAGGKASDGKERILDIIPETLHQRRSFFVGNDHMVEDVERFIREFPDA [P0A993]
a: 3.84
